- TARGET_OR_SYSTEM: human IBAT (Homo sapiens, UniProt Q12908)
- Construct: expressed in transfected cells; host or cells: Baby hamster kidney (BHK) cells, clone H14
- PROTOCOL_SUMMARY: In vitro assay of IBAT-mediated uptake of [14C]-taurocholate (TC) in H14 cells
- Type: cell-based
- ASSAY_SETUP: 100 uM; read-out: In vitro % Inhibition of TC Uptake @ 100 uM
OBSERVABLE: inhibition at 100 µM (%)

A: CCCC[C@]1(CC)CS(=O)(=O)c2ccccc2[C@H]2O[C@H]21 [Example 19b]
B: CCCCC1(CC)CS(=O)(=O)c2ccccc2C(Sc2ccccc2)C1O (centres unmarked) [Example 21a]
Q) Of A versus B , which is the one with smaller reported inhibition at 100 µM? Write the label of whichever entry you select.
A) A

* * *

OBSERVABLE: melting point (°C)

>>> recorded_measurement("CCCCC1(CCCC)CS(=O)(=O)c2ccc(N(C)C)cc2[C@@H](c2ccc(OCCCCCC(C(=O)O)C(=O)O)cc2)[C@H]1O [Example 1413]")
118
>>> recorded_measurement("CCCCC1(CCCC)CS(=O)(=O)c2ccc(N(C)C)cc2[C@@H](c2ccc(OCCCCCOc3cc(C(=O)O)nc(C(=O)O)c3)cc2)[C@H]1O [Example 1421]")
143

* * *

- TARGET_OR_SYSTEM: human IBAT (Homo sapiens)
- Construct: expressed in transfected cells; host or cells: Baby hamster kidney (BHK) cells, clone H14
- PROTOCOL_SUMMARY: In vitro assay of IBAT-mediated uptake of [14C]-taurocholate (TC) in H14 cells
- Type: cell-based
- ASSAY_SETUP: read-out: Human TC IC50
OBSERVABLE: IC50 (nM)

>>> recorded_measurement("CCCCC1(CCCC)CS(=O)(=O)c2c(cccc2N(C)C)C(c2ccsc2)C1O (single isomer, unassigned) [Example 1067]")
4
>>> recorded_measurement("CCCCC1(CCCC)CS(=O)(=O)c2ccc(C)cc2CC1O (stereo not shown)")
8300

A: CCCCC1(CCCC)CS(=O)(=O)c2ccc(N(C)C)cc2C(c2ccc(OCCCCCCCC[N+](CC)(CC)CC)c(F)c2)C1O (stereo not shown)
B: CCCCC1(CCCC)CS(=O)(=O)c2ccc(N(C)C)cc2C(c2ccc(OCCOCCOc3cccc(N(CC)CC)c3)c(F)c2)C1O (stereo not shown)
C: CCCCC1(CCCC)CS(=O)(=O)c2ccc(N(C)C)cc2C(c2ccc(OCCOCCN(C)CC(=O)O)c(F)c2)C1O (stereo not shown)
D: CCCCC1(CCCC)CS(=O)(=O)c2cc(N(C)C)ccc2C(c2ccccc2)C1O (stereo not shown)
E: CCCCC1(CCCC)CS(=O)(=O)c2ccc(N(C)C)cc2C(c2cccc(OCCOCCOCC[N+](C)(C)CCN(CC)C(=O)c3ccccc3)c2)C1O (stereo not shown)
Q) Provide the items ranked by increasing IC50. Answer format: the labels, ordered as requested.
A) A, E, C, B, D
(A: 3 nM, E: 5 nM, C: 18 nM, B: 63 nM, D: 120 nM)

* * *

- TARGET_OR_SYSTEM: human IBAT (Homo sapiens)
- Construct: expressed in transfected cells; host or cells: Baby hamster kidney (BHK) cells, clone H14
- Sequence (Q12908 1-348): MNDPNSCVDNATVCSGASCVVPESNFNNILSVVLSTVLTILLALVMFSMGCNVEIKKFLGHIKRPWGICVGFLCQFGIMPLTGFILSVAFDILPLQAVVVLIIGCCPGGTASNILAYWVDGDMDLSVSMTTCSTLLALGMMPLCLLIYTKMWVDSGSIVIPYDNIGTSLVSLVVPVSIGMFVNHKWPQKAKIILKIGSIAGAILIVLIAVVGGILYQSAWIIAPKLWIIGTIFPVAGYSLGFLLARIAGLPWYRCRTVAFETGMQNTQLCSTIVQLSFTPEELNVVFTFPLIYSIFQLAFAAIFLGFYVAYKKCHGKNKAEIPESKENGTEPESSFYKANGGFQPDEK
- PROTOCOL_SUMMARY: In vitro assay of IBAT-mediated uptake of [14C]-taurocholate (TC) in H14 cells
- Type: cell-based
- ASSAY_SETUP: read-out: Human TC IC50
OBSERVABLE: IC50 (nM)

Please review the following examples before continuing.
>>> recorded_measurement("CCCCC1(CCCC)CS(=O)(=O)c2c(cc(F)cc2N(C)C)C(c2ccccc2)C1O (stereo not drawn) [Example 1230]")
62
>>> recorded_measurement("CCCCC1(CCCC)CS(=O)(=O)c2ccc(N(C)C)cc2C(c2cccc(OCCOCCOCC[N+](CC)(CC)CC(C)=O)c2)C1O (stereo not drawn) [Example 1081]")
5
>>> recorded_measurement("CCCCC1(CC)CS(=O)(=O)c2ccc(N)cc2C(c2ccc(OCCOCCOCC[N+](C)(C)C)cc2)C1O (stereo not drawn) [Example 296]")
1600
>>> recorded_measurement("CCCCC1(CCCC)CS(=O)(=O)c2ccc(N(C)C)cc2C(c2cccc(OCCOCCOCC[N+]3=C4CCCCCN4CCC3)c2)C1O (stereo not drawn) [Example 1104]")
7

a: CCCCC1(CC)CS(=O)(=O)c2cc(OCC)ccc2C(c2ccccc2)C1O (stereo not drawn) [Example 1313]
b: CCCCC1(CC)CS(=O)(=O)c2ccc(F)cc2C(c2cccc(OC)c2)C1O (stereo not drawn) [Example 276]
Q) Task for the reader: decide whether a or b has the larger IC50. Write the label of whichever entry you select.
A) a
(a: 6100 nM, b: 230 nM)

a: CCCCCCOc1ccc2c(c1)S(=O)(=O)CC(CC)(CCCC)C(O)C2c1ccccc1 (stereo not drawn) [Example 1312]
b: CCCCC1(CCCC)CS(=O)(=O)c2ccc(N(C)C)cc2C(c2ccc(OCCC[n+]3ccc(N(C)C)cc3)c(F)c2)C1O (stereo not drawn) [Example 1053]
c: CCCCC1(CCCC)CS(=O)(=O)c2ccc(N(C)C)cc2C(c2cccc(OCCOCCOCC[n+]3c(C)cc(C)cc3C)c2)C1O (stereo not drawn) [Example 1368]
d: CCCCC1(CC)CS(=O)(=O)c2ccc(NC(C)=O)cc2C(c2ccccc2)C1O (stereo not drawn) [Example 110]
e: CCCCC1(CCCC)CS(=O)(=O)c2ccc(N(C)C)cc2C(c2cccc(OCCOCCOCC[N+](CCCCCCC(C)C)(CCCCCCC(C)C)CCCCCCC(C)C)c2)C1O (stereo not drawn) [Example 1276]
Q) Reorder: IC50, max to min. Answer format: the labels, ordered as requested.
A) a, d, e, c, b

1: CCCCC1(CCCC)CS(=O)(=O)c2ccc(N(C)C)cc2C(c2ccc(OCCCCOCCCC[N+](CC)(CC)CC)c(F)c2)C1O (stereo not drawn) [Example 1040]
2: CCCCC1(CCCC)CS(=O)(=O)c2ccc(N(C)C)cc2C(c2cccc(OCCOCCOCC[n+]3ccccc3-c3ccccc3)c2)C1O (stereo not drawn) [Example 1369]
Q) Task for the reader: decide whether 1 or 2 has the larger IC50. Write the label of whichever entry you select.
A) 2
